Molecular target: FFA2R (GPR43) (Homo sapiens)
Construct: gene FFAR2; full-length WT receptor, transiently transfected in HEK293T cells together with a defined Galpha subunit, Rap1GAP-RlucII and rGFP-CAAX; plasmid from cDNA.org
Sequence (O15552 1-330): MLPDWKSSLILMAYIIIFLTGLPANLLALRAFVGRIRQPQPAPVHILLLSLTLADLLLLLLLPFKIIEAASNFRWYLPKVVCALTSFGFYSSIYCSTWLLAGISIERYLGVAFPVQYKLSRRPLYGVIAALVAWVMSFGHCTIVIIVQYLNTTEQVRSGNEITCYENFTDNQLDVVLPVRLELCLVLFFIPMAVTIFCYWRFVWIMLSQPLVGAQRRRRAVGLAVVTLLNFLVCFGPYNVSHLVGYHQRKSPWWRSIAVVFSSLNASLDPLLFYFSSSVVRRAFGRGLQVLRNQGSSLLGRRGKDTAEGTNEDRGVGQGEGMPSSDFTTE
Assay: ebBRET effector membrane translocation assay (Rap1GAP-RlucII / rGFP-CAAX), Galpha-i1 activation
Type: cell-based
Conditions: read-out: Cmp58 / EC50
metricName: EC50 (nM)
Answer in nM, number only, no unit symbol.

Any idea what its EC50 is? The molecule is CC(C)(C)[C@H](C(=O)Nc1ncc(-c2ccccc2)s1)c1ccc(Cl)cc1
2280

Data origin: paper PMC12930632
